The measured values listed here are drawn from PubChem BioAssay (NCI).

Test: NCI Yeast Anticancer Drug Screen. Data for the bub3 strain (AID 167)
Details: S. cerevisiae bub3 mutant strain, at 50.0 µM
Description: Growth inhibition of yeast strains with defined genetic alterations is measured as a screen for potential anti-cancer activity. Selected strains with alterations in DNA damage repair or cell cycle control were exposed to compounds and growth inhibition was measured relative to vehicle treated controls. The strain used in this assay is bub3
This is part of a sample that, as a whole, favours compounds with a hit. Of some 79,000 tested, about 15% had one in any assay. Calls of active or inactive are those of the source. Rule as the data show it: active = growth inhibition above about 70%; inactive = the rest.
Return exactly one item of 1 = active, 0 = inactive

Use these answered entries as a reference point.
Problem: What is the recorded call for this molecule in the test? CSCCCO
Result: 0

Problem: What is the recorded call for this molecule in the test? O=C=Nc1ccccc1[N+](=O)[O-]
Result: 0

Problem: What is the recorded call for this molecule in the test? CCOC(=O)/C=C1\NCCc2ccccc21
Result: 0

Problem: What is the recorded call for this molecule in the test? COc1ccc(/C=C/c2ccc3ccccc3[n+]2C)cc1OC
Result: 0

Problem: What is the recorded call for this molecule in the test? CCN(CC)CCC(CN(C)C)C(C)O (stereo not drawn)
Result: 0

Problem: What is the recorded call for this molecule in the test? C[C@]12CCC[C@H](O)[C@H]1O2
Result: 0

Others:
Problem: What is the recorded call for this molecule in the test? C=C(C)[C@@H]1CC[C@@H]2C(=CC[C@]3(C)C([C@H](C)CC/C=C(/C)C(=O)O)CC[C@@]23C)[C@@]1(C)CCC(=O)O (stereo partly drawn)
Result: 0

Problem: What is the recorded call for this molecule in the test? CSc1nc(=O)cc(N)n1C
Result: 0

Problem: What is the recorded call for this molecule in the test? O=C(C/C(=C/c1ccccc1)[N+](=O)[O-])c1ccccc1
Result: 1

Problem: What is the recorded call for this molecule in the test? CC(C)(C)NNC(=O)/C(=C/c1ccc([N+](=O)[O-])cc1)NC(=O)c1ccccc1
Result: 0

Problem: What is the recorded call for this molecule in the test? CC(C)c1ccc2c(c1)CC[C@H]1[C@](C)(COCCC#N)CCC[C@]21C
Result: 0

Problem: What is the recorded call for this molecule in the test? O=S(=O)(Cl)c1cccc2cc3ccccc3cc12
Result: 0

Problem: What is the recorded call for this molecule in the test? CC(C)c1nc2c([nH]1)c(=O)n(C)c(=O)n2C
Result: 0

Problem: What is the recorded call for this molecule in the test? [N-]=[N+]=Nc1cc(-c2ccccc2)nc2cc3c(cc12)OCO3
Result: 0

Problem: What is the recorded call for this molecule in the test? O=c1n(-c2ccccc2)c(=O)n2n1C1C=CC2C23C=CC12CCCC3 (stereo not drawn)
Result: 0

Problem: What is the recorded call for this molecule in the test? CCc1cccc(CC)c1N=Cc1ccccc1O
Result: 0

Problem: What is the recorded call for this molecule in the test? COC(=O)CCc1nc2ccccc2c(=O)[nH]1
Result: 0
